target.or.test.system: Caspase-4 (Homo sapiens)
Construct: mixing the compounds with the respective active caspases; purchased BioVision K154-100
protocol.details: Caspase-4 inhibitor screening assay (BioVision kit, LEVD-AFC)
Assay type: biochemical
protocol.conditions: read-out: % Inhibition at 100 uM Casp4
Structures can show the parent of a compound that is named as a salt.
property.label: inhibition at 100 µM (%)
Give just the number in %; leave the unit off.

Please give the documented inhibition at 100 µM of CC(C)(C)[C@H](NC(=O)c1ccc2ncccc2n1)C(=O)N1CCCC1C(=O)N[C@H](/C=C/S(C)(=O)=O)CC(=O)O (stereo in doubt)
100

Provide measured inhibition at 100 µM value, entry: CCC(C)[C@H](NC(=O)[C@H](CCC(=O)O)NC(=O)[C@@H](NC(=O)OCc1ccccc1)C(C)C)C(=O)N[C@H](/C=C/S(C)(=O)=O)CC(=O)O (stereo partly drawn)
100

Tell me its inhibition at 100 µM given CCOC(=O)/C=C/[C@@H](N)CC(=O)O [Compound 44, Asp ethyl vinyl ester tosyl salt] as the entry.
0

====

target.or.test.system: Caspase-4 (Homo sapiens, UniProt P49662)
Construct: mixing the compounds with the respective active caspases; purchased BioVision K154-100
Sequence (P49662 81-270 limits assumed): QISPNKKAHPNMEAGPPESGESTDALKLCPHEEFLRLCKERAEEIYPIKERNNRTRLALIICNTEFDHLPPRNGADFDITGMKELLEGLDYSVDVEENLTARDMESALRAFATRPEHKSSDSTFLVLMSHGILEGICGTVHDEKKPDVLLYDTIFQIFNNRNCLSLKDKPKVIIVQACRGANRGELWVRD
Sequence (P49662 290-377 limits assumed): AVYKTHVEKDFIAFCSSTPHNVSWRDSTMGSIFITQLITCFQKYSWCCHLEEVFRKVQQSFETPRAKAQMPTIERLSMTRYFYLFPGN
protocol.details: Caspase-4 inhibitor screening assay (BioVision kit, LEVD-AFC)
Format: biochemical
protocol.conditions: read-out: potency (IC50) against caspase-4
Measured IC50 of individual entries
The figure you give is taken to be in nM; do not add the unit.

> print(dat)
                                   compound                     target.or.test.system  unit.of.measurement  observed.result
1  CC(C)(C)[C@H](NC(=O)c1ccc2ccccc2n1)C(=O)N1CCC[C@@H]1C(=O)N[C@H](/C=C/S(C)(=O)=O)CC(=O)O  Caspase-4 (Homo sapiens, UniProt P49662)                   nM             1550

Identify measured IC50 corresponding to CC(C)(C)[C@H](NC(=O)c1ccc(N)c(Cl)c1)C(=O)N1CCCC1C(=O)N[C@H](/C=C/S(C)(=O)=O)CC(=O)O (stereo in doubt)
87

====

Measured inhibition at 100 µM, listed per entry.
target.or.test.system: Caspase-4 (Homo sapiens, UniProt P49662)
Construct: mixing the compounds with the respective active caspases; purchased BioVision K154-100
protocol.details: Caspase-4 inhibitor screening assay (BioVision kit, LEVD-AFC)
Assay type: biochemical
protocol.conditions: read-out: % Inhibition at 100 uM Casp4
The reply should be a number in %, with the unit left off.

# example entries with known answers
compound	unit.of.measurement	observed.result
CC(C)[C@H](NC(=O)[C@@H](N)Cc1ccc(O)cc1)C(=O)N[C@@H](C)C(=O)N[C@H](/C=C/S(C)(=O)=O)CC(=O)O [Compound 42, Tyr-Val-Ala-Asp methyl vinyl sulfone]	%	100
CC(C)(C)[C@H](NC(=O)[C@H](CC(=O)O)NC(=O)OCc1ccccc1)C(=O)N1CCCC1C(=O)N[C@H](/C=C/S(C)(=O)=O)CC(=O)O (stereo in doubt) [Compound 26, Z-Asp-t-Leu-Pro-Asp-methyl vinyl sulfone]	%	100

Kindly consider the entry below.
For the compound CS(=O)(=O)/C(Cl)=C/[C@@H](N)CC(=O)O [Compound 4] , give its reported inhibition at 100 µM.
0

====

target.or.test.system: Caspase-1 (Homo sapiens)
Construct: mixing the compounds with the respective active caspases; purchased BioVision K151-100
Sequence (P29466 120-297 limits assumed): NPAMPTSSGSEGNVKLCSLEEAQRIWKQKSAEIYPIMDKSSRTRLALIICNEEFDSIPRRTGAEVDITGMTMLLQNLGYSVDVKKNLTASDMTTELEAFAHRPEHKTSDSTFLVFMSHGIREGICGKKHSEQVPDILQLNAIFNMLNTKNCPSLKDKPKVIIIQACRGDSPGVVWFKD
Sequence (P29466 317-404 limits assumed): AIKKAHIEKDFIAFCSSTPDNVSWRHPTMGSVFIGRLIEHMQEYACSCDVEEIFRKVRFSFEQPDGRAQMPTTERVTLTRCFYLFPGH
protocol.details: Caspase-1 inhibitor screening assay (BioVision kit, YVAD-AFC)
Format: biochemical
protocol.conditions: read-out: IC50 Casp1
property.label: IC50 (µM)
// note: answer is a bare numeric in µM

molecule	target.or.test.system	IC50, µM
CC(C)[C@H](NC(=O)[C@@H](N)Cc1ccc(O)cc1)C(=O)N[C@@H](C)C(=O)N[C@H](/C=C/S(C)(=O)=O)CC(=O)O	Caspase-1 (Homo sapiens)	33.8
CCOC(=O)/C=C/[C@H](CC(=O)O)NC(=O)[C@H]1CCCN1C(=O)[C@@H](NC(=O)c1ccc2ccccc2n1)C(C)(C)C	Caspase-1 (Homo sapiens)	0.03
CCOC(=O)/C=C/[C@H](CC(=O)O)NC(=O)[C@@H](NC(=O)[C@H](CCC(=O)O)NC(=O)[C@@H](NC(=O)OCc1ccccc1)C(C)C)C(C)CC (some centres unmarked)	Caspase-1 (Homo sapiens)	0.78

Consider the additional molecule presented here.
Enter IC50 (test system Caspase-1 (Homo sapiens)) for "CCOC(=O)/C(Cl)=C/[C@H](CC(=O)O)NC(=O)[C@H]1CCCN1C(=O)[C@H](NC(=O)[C@H](CC(=O)O)NC(=O)OCc1ccccc1)C(C)(C)C"
7.9

====

target.or.test.system: Caspase-10 (Homo sapiens, UniProt Q92851)
Construct: mixing the compounds with the respective active caspases; purchased BioVision K160-100
Sequence (Q92851 220-415 limits assumed): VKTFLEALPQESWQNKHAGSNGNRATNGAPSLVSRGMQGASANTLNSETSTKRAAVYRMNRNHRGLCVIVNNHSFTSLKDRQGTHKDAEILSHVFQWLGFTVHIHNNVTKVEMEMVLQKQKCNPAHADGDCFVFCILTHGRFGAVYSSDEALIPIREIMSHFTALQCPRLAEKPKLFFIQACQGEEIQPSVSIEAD
Sequence (Q92851 416-521 limits assumed): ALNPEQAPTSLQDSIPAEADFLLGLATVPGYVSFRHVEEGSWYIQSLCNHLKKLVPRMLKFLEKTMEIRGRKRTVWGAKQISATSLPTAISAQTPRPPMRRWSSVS
protocol.details: Caspase-10 inhibitor screening assay (BioVision kit, AEVD-AFC)
Assay type: biochemical
protocol.conditions: 10 uM; read-out: % Inhibition at 10 uM Casp10
Counter-ions that a name gives are not always drawn.
property.label: inhibition at 10 µM

Reference set, count: 5
> print(dat)
                                   compound       property.label  observed.result
1  CC(C)(C)[C@H](NC(=O)c1ccc2ccccc2n1)C(=O)N1CCC[C@@H]1C(=O)N[C@H](/C=C/S(C)(=O)=O)CC(=O)O  inhibition at 10 µM               3%
2  CS(=O)(=O)/C=C/[C@H](CC(=O)O)NC(=O)C1CCCN1C(=O)[C@@H](NC(=O)[C@H](CC(=O)O)NC(=O)OCc1ccccc1)C1CC1 (stereo in doubt)  inhibition at 10 µM              82%
3  CCOC(=O)/C=C/[C@@H](N)CC(=O)O [Compound 44, Asp ethyl vinyl ester tosyl salt]  inhibition at 10 µM               4%
4  CC(C)[C@H](NC(=O)c1ccc2ccccc2n1)C(=O)N[C@H](/C=C/S(C)(=O)=O)CC(=O)O  inhibition at 10 µM              26%
5  CS(=O)(=O)/C=C/[C@H](CC(=O)O)NC(=O)[C@H]1CCCN1C(=O)[C@@H](NC(=O)[C@H](CC(=O)O)NC(=O)OCc1ccccc1)c1ccccc1  inhibition at 10 µM              43%

Dear colleague, please send me the reported inhibition at 10 µM for "CCOC(=O)/C=C/[C@H](CC(=O)O)NC(=O)[C@@H](NC(=O)[C@@H](NC(=O)[C@H](CC(=O)O)NC(=O)OCc1ccccc1)c1ccccc1)C(C)C" when you can.
96%

Give the reported value of inhibition at 10 µM for this record: "CC(C)(C)OC(=O)CC[C@H](NC(=O)OC(C)(C)C)C(=O)N[C@H](/C=C/S(C)(=O)=O)CC(=O)OC(C)(C)C"
0%

Tell me inhibition at 10 µM reported for "CC(C)[C@H](NC(=O)OCc1ccccc1)C(=O)N[C@H](/C=C/S(C)(=O)=O)CC(=O)O"
15%

Please list inhibition at 10 µM recorded for the compound "CC(C)(C)[C@@H](NC(=O)[C@H](CC(=O)O)NC(=O)OCc1ccccc1)C(=O)N1CC[C@@H]1C(=O)N[C@H](/C=C/S(C)(=O)=O)CC(=O)O"
97%

Annotate the compound "CC(C)[C@H](NC(=O)[C@@H](NC(=O)[C@H](CC(=O)O)NC(=O)OCc1ccccc1)c1ccccc1)C(=O)N[C@H](/C=C/S(C)(=O)=O)CCC(=O)O" with its measured inhibition at 10 µM.
2%

Retrieve inhibition at 10 µM measured for "CS(=O)(=O)/C(Cl)=C/[C@@H](N)CC(=O)O" and print it.
36%

Tell me its inhibition at 10 µM given "CS(=O)(=O)/C=C/[C@H](CC(=O)O)NC(=O)[C@@H](N)CCC(=O)O" as the entry.
15%

====

target.or.test.system: Caspase-9 (Homo sapiens)
Construct: purchased BioVision K159-100
Sequence (P55211 1-315 limits assumed): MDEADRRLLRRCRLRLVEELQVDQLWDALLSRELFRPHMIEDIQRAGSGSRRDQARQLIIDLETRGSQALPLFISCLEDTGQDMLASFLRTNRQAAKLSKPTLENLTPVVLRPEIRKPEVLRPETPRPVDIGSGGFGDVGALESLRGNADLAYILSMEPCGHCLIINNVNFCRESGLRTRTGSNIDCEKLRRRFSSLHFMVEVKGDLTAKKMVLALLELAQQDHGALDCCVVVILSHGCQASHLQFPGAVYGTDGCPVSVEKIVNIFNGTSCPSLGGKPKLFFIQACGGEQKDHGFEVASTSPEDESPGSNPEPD
Sequence (P55211 331-416 limits assumed): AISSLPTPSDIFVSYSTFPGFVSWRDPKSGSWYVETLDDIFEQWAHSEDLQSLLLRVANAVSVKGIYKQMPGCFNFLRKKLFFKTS
protocol.details: Caspase-9 inhibitor screening assay (BioVision kit, LEHD-AFC)
Type: biochemical
protocol.conditions: read-out: IC50 Casp9
property.label: pIC50
API: returns pIC50 as number; meaning -log10 of concentration in mol/L.

molecule	observed.result
CS(=O)(=O)/C=C/[C@H](CC(=O)O)NC(=O)C1CCCN1C(=O)[C@@H](NC(=O)[C@H](CC(=O)O)NC(=O)OCc1ccccc1)C1CC1 (stereo in doubt)	5.04

Please indicate pIC50 recorded for CCC(C)[C@H](NC(=O)[C@H](CCC(=O)O)NC(=O)[C@@H](NC(=O)OCc1ccccc1)C(C)C)C(=O)N[C@H](/C=C/S(C)(=O)=O)CC(=O)O (some centres unmarked)
6.10

Using the record for CCC(C)[C@H](NC(=O)[C@H](CCC(=O)O)NC(=O)[C@@H](NC(=O)OCc1ccccc1)C(C)C)C(=O)N[C@H](/C=C(\Cl)S(C)(=O)=O)CC(=O)O (some centres unmarked) , state its measured pIC50.
5.19
